tested on: ACHN; assay: Growth inhibition of human ACHN cells assessed as cell growth at 10^-5 M incubated for 48 hrs by sulforhodamine B assay relative to control; assay type: functional; settings: read-out: Activity
OBSERVABLE: growth at 10 µM (%)

INSERT INTO assay_data (smiles, reported) VALUES
  ('O=C1Nc2ccccc2/C1=C/c1cccn1CCCCCn1c2ccccc2c(=O)c2ccccc21', 55.1),
  ('O=C1/C(=C\c2cccn2CCCCCn2c3ccccc3c(=O)c3ccccc32)c2ccccc2N1c1c(Cl)cccc1Cl', 100),
  ('O=C1NC(=O)C(=Cc2cccn2CCCCCn2c3ccccc3c(=O)c3ccccc32)C(=O)N1', 105),
  ('O=C1NC(=O)C(=Cc2cccn2CCCCCCn2c3ccccc3c(=O)c3ccccc32)C(=O)N1', 103),
  ('O=C1NC(=O)C(=Cc2cccn2CCCn2c3ccccc3c(=O)c3ccccc32)C(=O)N1', 102),
  ('O=C1/C(=C\c2cccn2CCCCCCn2c3ccccc3c(=O)c3ccccc32)c2ccccc2N1c1c(Cl)cccc1Cl', 97.7),
  ('O=C1Nc2ccccc2/C1=C/c1cccn1CCCCn1c2ccccc2c(=O)c2ccccc21', 76.3),
  ('O=C1/C(=C\c2cccn2CCCCn2c3ccccc3c(=O)c3ccccc32)c2ccccc2N1c1c(Cl)cccc1Cl', 99.5),
  ('O=C1Nc2ccccc2/C1=C/c1cccn1CCCCCCn1c2ccccc2c(=O)c2ccccc21', 89.7),
  ('O=C1NC(=O)C(=Cc2cccn2CCCCn2c3ccccc3c(=O)c3ccccc32)C(=O)N1', 92.8);

====

test system: OVCAR-4; assay: Growth inhibition of human OVCAR4 cells assessed as cell growth at 10^-5 M incubated for 48 hrs by sulforhodamine B assay relative to control; type: functional; settings: OVCAR-4, 48 h, read-out: Activity
Could you please mark fulfilled for values of growth at 10 µM below 80% and not fulfilled for values at or above it?

INSERT INTO measurements (smiles, system_tested, class_assignment) VALUES
  ('O=C1/C(=C\c2cccn2CCCCCCn2c3ccccc3c(=O)c3ccccc32)c2ccccc2N1c1c(Cl)cccc1Cl', 'OVCAR-4', 'fulfilled'),
  ('O=C1/C(=C\c2cccn2CCCCCn2c3ccccc3c(=O)c3ccccc32)c2ccccc2N1c1c(Cl)cccc1Cl', 'OVCAR-4', 'fulfilled'),
  ('O=C1Nc2ccccc2/C1=C/c1cccn1CCCCCCn1c2ccccc2c(=O)c2ccccc21', 'OVCAR-4', 'fulfilled'),
  ('O=C1NC(=O)C(=Cc2cccn2CCCCn2c3ccccc3c(=O)c3ccccc32)C(=O)N1', 'OVCAR-4', 'not fulfilled'),
  ('O=C1Nc2ccccc2/C1=C/c1cccn1CCCCCn1c2ccccc2c(=O)c2ccccc21', 'OVCAR-4', 'fulfilled'),
  ('O=C1NC(=O)C(=Cc2cccn2CCCCCCn2c3ccccc3c(=O)c3ccccc32)C(=O)N1', 'OVCAR-4', 'not fulfilled'),
  ('O=C1NC(=O)C(=Cc2cccn2CCCCCn2c3ccccc3c(=O)c3ccccc32)C(=O)N1', 'OVCAR-4', 'not fulfilled'),
  ('O=C1NC(=O)C(=Cc2cccn2CCCn2c3ccccc3c(=O)c3ccccc32)C(=O)N1', 'OVCAR-4', 'not fulfilled'),
  ('O=C1Nc2ccccc2/C1=C/c1cccn1CCCCn1c2ccccc2c(=O)c2ccccc21', 'OVCAR-4', 'fulfilled');

====

system: HOP-62; assay: Growth inhibition of human HOP62 cells assessed as cell growth at 10^-5 M incubated for 48 hrs by sulforhodamine B assay relative to control; assay type: functional; details: HOP-62, 48 h, read-out: Activity
Could you please mark yes (1) for values of growth at 10 µM below 90% and no (0) for values at or above it?

INSERT INTO assay_data (smiles, system_tested, class_assignment) VALUES
  ('O=C1/C(=C\c2cccn2CCCCn2c3ccccc3c(=O)c3ccccc32)c2ccccc2N1c1c(Cl)cccc1Cl', 'HOP-62', 'no (0)'),
  ('O=C1NC(=O)C(=Cc2cccn2CCCCCCn2c3ccccc3c(=O)c3ccccc32)C(=O)N1', 'HOP-62', 'no (0)'),
  ('O=C1/C(=C\c2cccn2CCCCCn2c3ccccc3c(=O)c3ccccc32)c2ccccc2N1c1c(Cl)cccc1Cl', 'HOP-62', 'no (0)'),
  ('O=C1NC(=O)C(=Cc2cccn2CCCCn2c3ccccc3c(=O)c3ccccc32)C(=O)N1', 'HOP-62', 'yes (1)'),
  ('O=C1NC(=O)C(=Cc2cccn2CCCn2c3ccccc3c(=O)c3ccccc32)C(=O)N1', 'HOP-62', 'no (0)');

====

Listed here are compounds together with their documented growth at 10 µM.
test system: HOP-62; assay: Growth inhibition of human HOP62 cells assessed as cell growth at 10^-5 M incubated for 48 hrs by sulforhodamine B assay relative to control; assay type: functional; conditions: HOP-62, 48 h, read-out: Activity
OBSERVABLE: growth at 10 µM (%)

INSERT INTO assay_data (smiles, reported) VALUES
  ('O=C1Nc2ccccc2/C1=C/c1cccn1CCCCn1c2ccccc2c(=O)c2ccccc21', 77.4),
  ('O=C1Nc2ccccc2/C1=C/c1cccn1CCCCCCn1c2ccccc2c(=O)c2ccccc21', 63.2),
  ('O=C1NC(=O)C(=Cc2cccn2CCCCCn2c3ccccc3c(=O)c3ccccc32)C(=O)N1', 102),
  ('O=C1Nc2ccccc2/C1=C/c1cccn1CCCCCn1c2ccccc2c(=O)c2ccccc21', 58.3),
  ('O=C1/C(=C\c2cccn2CCCCCCn2c3ccccc3c(=O)c3ccccc32)c2ccccc2N1c1c(Cl)cccc1Cl', 102);

====

test system: NCI-H322M; experiment: Growth inhibition of human NCI-H322M cells assessed as cell growth at 10^-5 M incubated for 48 hrs by sulforhodamine B assay relative to control; format: functional; conditions: read-out: Activity
OBSERVABLE: growth at 10 µM

INSERT INTO assay_data (smiles, observable, reported) VALUES
  ('O=C1Nc2ccccc2/C1=C/c1cccn1CCCCn1c2ccccc2c(=O)c2ccccc21', 'growth at 10 µM', '101%'),
  ('O=C1/C(=C\c2cccn2CCCCCCn2c3ccccc3c(=O)c3ccccc32)c2ccccc2N1c1c(Cl)cccc1Cl', 'growth at 10 µM', '98.6%'),
  ('O=C1/C(=C\c2cccn2CCCCn2c3ccccc3c(=O)c3ccccc32)c2ccccc2N1c1c(Cl)cccc1Cl', 'growth at 10 µM', '103%'),
  ('O=C1/C(=C\c2cccn2CCCCCn2c3ccccc3c(=O)c3ccccc32)c2ccccc2N1c1c(Cl)cccc1Cl', 'growth at 10 µM', '110%'),
  ('O=C1Nc2ccccc2/C1=C/c1cccn1CCCCCn1c2ccccc2c(=O)c2ccccc21', 'growth at 10 µM', '98.8%'),
  ('O=C1NC(=O)C(=Cc2cccn2CCCn2c3ccccc3c(=O)c3ccccc32)C(=O)N1', 'growth at 10 µM', '98.5%'),
  ('O=C1NC(=O)C(=Cc2cccn2CCCCCn2c3ccccc3c(=O)c3ccccc32)C(=O)N1', 'growth at 10 µM', '98.3%'),
  ('O=C1Nc2ccccc2/C1=C/c1cccn1CCCCCCn1c2ccccc2c(=O)c2ccccc21', 'growth at 10 µM', '97.9%'),
  ('O=C1NC(=O)C(=Cc2cccn2CCCCn2c3ccccc3c(=O)c3ccccc32)C(=O)N1', 'growth at 10 µM', '97.3%'),
  ('O=C1NC(=O)C(=Cc2cccn2CCCCCCn2c3ccccc3c(=O)c3ccccc32)C(=O)N1', 'growth at 10 µM', '94.1%');

====

system: Hs-578T; experiment: Growth inhibition of human Hs578T cells assessed as cell growth at 10^-5 M incubated for 48 hrs by sulforhodamine B assay relative to control; assay type: functional; conditions: read-out: Activity
Listed here are compounds together with their documented growth at 10 µM.
OBSERVABLE: growth at 10 µM (%)

INSERT INTO measurements (smiles, unit_name, reported) VALUES
  ('O=C1NC(=O)C(=Cc2cccn2CCCCCCn2c3ccccc3c(=O)c3ccccc32)C(=O)N1', '%', 106),
  ('O=C1Nc2ccccc2/C1=C/c1cccn1CCCCCCn1c2ccccc2c(=O)c2ccccc21', '%', 96.3),
  ('O=C1/C(=C\c2cccn2CCCCn2c3ccccc3c(=O)c3ccccc32)c2ccccc2N1c1c(Cl)cccc1Cl', '%', 103),
  ('O=C1Nc2ccccc2/C1=C/c1cccn1CCCCn1c2ccccc2c(=O)c2ccccc21', '%', 86.3),
  ('O=C1Nc2ccccc2/C1=C/c1cccn1CCCCCn1c2ccccc2c(=O)c2ccccc21', '%', 90.5);

====

system: SF-539; assay: Growth inhibition of human SF539 cells assessed as cell growth at 10^-5 M incubated for 48 hrs by sulforhodamine B assay relative to control; type: functional; conditions: SF-539, 48 h, read-out: Activity
OBSERVABLE: growth at 10 µM (%)

INSERT INTO measurements (smiles, system_tested, observable, unit_name, reported) VALUES
  ('O=C1NC(=O)C(=Cc2cccn2CCCCCCn2c3ccccc3c(=O)c3ccccc32)C(=O)N1', 'SF-539', 'growth at 10 µM', '%', 107),
  ('O=C1Nc2ccccc2/C1=C/c1cccn1CCCCCn1c2ccccc2c(=O)c2ccccc21', 'SF-539', 'growth at 10 µM', '%', 94.2),
  ('O=C1/C(=C\c2cccn2CCCCCCn2c3ccccc3c(=O)c3ccccc32)c2ccccc2N1c1c(Cl)cccc1Cl', 'SF-539', 'growth at 10 µM', '%', 104);
